Reference source: the supplement of paper PMC8967900

- System: PF-382;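 further: ALL cell lines in 384-well plates, five doses spanning 10,000-fold, each plate scaled between vehicle and 100 µmol/L benzalkonium chloride controls, sDSS an adapted area-under-curve metric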
- measurement protocol: selective drug sensitivity score (sDSS, relative to normal bone marrow) (sDSS (score)); higher = more potent and effective on the cell line relative to normal bone marrow cells
- applied conditions: 72 h
# class assignment by measured selective drug sensitivity score: bottom range: < -0.02; center range: ≥ -0.02 and < 4; top range: ≥ 4

Consider the following illustrative entries.
{"columns": ["molecule", "label"],
 "data": [
  ["Cc1cc([C@@H](C)Nc2ccccc2C(=O)O)c2nc(N3CCOCC3)cc(=O)n2c1 [AZD-6482] (top concentration 2500 nM)", "center range"],
  ["C1=N/C2=N/c3ccc(OCCN4CCCC4)c(c3)COC/C=C/COCc3cccc(c3)C(=C1)N2 [Pacritinib] (top concentration 10000 nM)", "bottom range"],
  ["CN1CCN(CCOc2cc(OC3CCOCC3)c3c(Nc4c(Cl)ccc5c4OCO5)ncnc3c2)CC1 [Saracatinib] (top concentration 10000 nM)", "top range"],
  ["COc1cc2nccc(Oc3ccc(NC(=O)C4(C(=O)Nc5ccc(F)cc5)CC4)cc3)c2cc1OC [Cabozantinib] (top concentration 1000 nM)", "bottom range"],
  ["O=c1sn(-c2cccc3ccccc23)c(=O)n1Cc1ccccc1 [Tideglusib] (top concentration 3000 nM)", "bottom range"],
  ["COc1ccc(-c2ccc3ncc4c(c3c2)n(-c2ccc(N3CCNCC3)c(C(F)(F)F)c2)c(=O)n4C)cn1 [NVP-BGT226] (top concentration 1000 nM)", "top range"]
]}

Q) Could you place NCCNc1ccc(NCCN)c2c1C(=O)c1ccncc1C2=O [Pixantrone] (top concentration 10000 nM) in its proper category? Many thanks.
A) bottom range

Q) Could you place CC[C@]1(O)C[C@H]2CN(CCc3c([nH]c4ccccc34)[C@@](C(=O)OC)(c3cc4c(cc3OC)N(C=O)[C@H]3[C@@](O)(C(=O)OC)[C@H](OC(C)=O)[C@]5(CC)C=CCN6CC[C@]43[C@@H]65)C2)C1 [Vincristine] (top concentration 1000 nM) in its proper category? Many thanks.
A) bottom range

Q) Could you place O=C(Nc1ccc(OC(F)(F)Cl)cc1)c1cnc(N2CC[C@@H](O)C2)c(-c2cc[nH]n2)c1 [Asciminib] (top concentration 1000 nM) in its proper category? Many thanks.
A) bottom range

Q) Could you place COc1ccc(CCc2nc3cc(-c4c(C)noc4C)ccc3n2C[C@H](C)N2CCOCC2)cc1Cl [SGC-CBP30] (top concentration 25000 nM) in its proper category? Many thanks.
A) center range

Q) Could you place O=C(/C=C/c1cccnc1)NCCCCC1CCN(C(=O)c2ccccc2)CC1 [Daporinad] (top concentration 1000 nM) in its proper category? Many thanks.
A) top range

Q) Could you place CNC(=O)c1cc(Oc2ccc(NC(=O)Nc3ccc(Cl)c(C(F)(F)F)c3)c(F)c2)ccn1 [Regorafenib] (top concentration 10000 nM) in its proper category? Many thanks.
A) top range
